These data points were gathered from ChEMBL document CHEMBL1127194.

Target: Oryctolagus cuniculus angiotensin II receptor
Test: Inhibition of angiotensin II induced contractions in rabbit aortic ring preparation.
MEASUREMENT_LABEL: pA2

[
  {
    "SMILES_STRING": "CCCCCCCc1nc(SCc2ccc(-c3ccccc3C(=O)O)cc2)nn1Cc1ccc(-c2ccccc2C(=O)O)cc1",
    "pA2": 6.7
  },
  {
    "SMILES_STRING": "O=C(O)c1ccccc1-c1ccc(CSc2nc(Cc3ccccc3)n(Cc3ccc(-c4ccccc4C(=O)O)cc3)n2)cc1",
    "pA2": 7
  },
  {
    "SMILES_STRING": "CCCCCc1nc(SCc2ccc(-c3ccccc3C(=O)O)cc2)n(Cc2ccc(-c3ccccc3C(=O)O)cc2)n1",
    "pA2": 7.2
  },
  {
    "SMILES_STRING": "CCCCCc1nc(SCc2ccc(-c3ccccc3C(=O)O)cc2)nn1Cc1ccc(-c2ccccc2C(=O)O)cc1",
    "pA2": 8.4
  },
  {
    "SMILES_STRING": "CCCCCCc1nc(SCc2ccc(-c3ccccc3C(=O)O)cc2)nn1Cc1ccc(-c2ccccc2C(=O)O)cc1",
    "pA2": 8
  },
  {
    "SMILES_STRING": "CCCCc1nc(SCc2ccc(-c3ccccc3C(=O)O)cc2)n(Cc2ccc(-c3ccccc3C(=O)O)cc2)n1",
    "pA2": 7
  },
  {
    "SMILES_STRING": "O=C(O)c1ccccc1-c1ccc(CSc2nc(Cc3ccccc3)nn2Cc2ccc(-c3ccccc3C(=O)O)cc2)cc1",
    "pA2": 6.1
  },
  {
    "SMILES_STRING": "CCCCCCCCc1nc(S(=O)(=O)Cc2ccc(-c3ccccc3C(=O)O)cc2)nn1Cc1ccc(-c2ccccc2C(=O)O)cc1",
    "pA2": 6.1
  },
  {
    "SMILES_STRING": "CCCCCCCc1nc(S(=O)(=O)Cc2ccc(-c3ccccc3C(=O)O)cc2)nn1Cc1ccc(-c2ccccc2C(=O)O)cc1",
    "pA2": 6.5
  }
]

----------
Target: Oryctolagus cuniculus angiotensin II receptor
Experiment: Inhibition of angiotensin II induced contractions in rabbit aortic ring preparation.
MEASUREMENT_LABEL: pA2

[
  {
    "SMILES_STRING": "CCCCc1nc(SCc2ccc(-c3ccccc3C(=O)O)cc2)nn1Cc1ccc(-c2ccccc2C(=O)O)cc1",
    "pA2": 8.3
  },
  {
    "SMILES_STRING": "CC(C)Cc1nc(SCc2ccc(-c3ccccc3C(=O)O)cc2)nn1Cc1ccc(-c2ccccc2C(=O)O)cc1",
    "pA2": 7.5
  },
  {
    "SMILES_STRING": "CCCCCc1nc(SCc2ccc(-c3ccccc3C#N)cc2)nn1Cc1ccc(-c2ccccc2C(=O)O)cc1",
    "pA2": 6.3
  },
  {
    "SMILES_STRING": "CCCCCCc1nc(S(=O)(=O)Cc2ccc(-c3ccccc3C(=O)O)cc2)nn1Cc1ccc(-c2ccccc2C(=O)O)cc1",
    "pA2": 8.1
  },
  {
    "SMILES_STRING": "CCCCCCCc1nc(SCc2ccc(-c3ccccc3C(=O)O)cc2)n(Cc2ccc(-c3ccccc3C(=O)O)cc2)n1",
    "pA2": 5.9
  }
]
